Experiment: Relaxivity measurements at 1.41 T in water
Type: physicochemical
Details: 37° C., normalized to Gd
# maps each entry to its r1 water
MEASURED_METRIC: r1 water (L/mmol/s)

molecule="CCCCOc1cccc(CCC[C@@H](C(=O)O)N2CCN([C@@H](CO)C(=O)[O-])CCN([C@@H](CO)C(=O)[O-])CCN([C@@H](CO)C(=O)[O-])CC2)c1.[Gd+3] [Example 34]" unit_tag=L/mmol/s observed_value=4.9
molecule="CCOCCOc1ccc(CC(C(=O)O)N2CCN(CC(=O)[O-])CCN(C(CC)C(=O)[O-])CCN(CC(=O)[O-])CC2)cc1.[Gd+3] (single isomer, unassigned) [Example 7]" unit_tag=L/mmol/s observed_value=4.5
molecule="CCOCCOCCOc1ccc(CCC[C@H](C(=O)O)N2CCN([C@@H](CO)C(=O)[O-])CCN([C@@H](CO)C(=O)[O-])CCN([C@@H](CO)C(=O)[O-])CC2)cc1.[Gd+3] [Example 18]" unit_tag=L/mmol/s observed_value=5.5
molecule="CCOCCOCCOc1cc(CC(C(=O)O)N2CCN(CC(=O)[O-])CCN(CC(=O)[O-])CCN(CC(=O)[O-])CC2)cc(OCCOCCOCC)c1.[Gd+3] (centres unmarked) [Example 39]" unit_tag=L/mmol/s observed_value=4.8
molecule="CCOCCOCCOc1ccc(CC(C(=O)O)N2CCN(CC(=O)[O-])CCN(CC(=O)[O-])CCN(CC(=O)[O-])CC2)cn1.[Gd+3] (centres unmarked) [Example 16]" unit_tag=L/mmol/s observed_value=4.4
molecule="CCOc1ccc(CCOCC(C(=O)O)N2CCN(CC(=O)[O-])CCN(CC(=O)[O-])CCN(CC(=O)[O-])CC2)cc1.[Gd+3] (centres unmarked) [Example 1]" unit_tag=L/mmol/s observed_value=4.1
molecule="CCOCCOCCOc1ccc(CC(C(=O)O)N2CCN(C(CO)C(=O)[O-])CCN(C(CO)C(=O)[O-])CCN(C(CO)C(=O)[O-])CC2)cc1.[Gd+3] (centres unmarked) [Example 22]" unit_tag=L/mmol/s observed_value=5.4
molecule="CCOCCOc1ccc(CC(C(=O)O)N2CCN(CC(=O)[O-])CCN(CC(=O)[O-])CCN(CC(=O)[O-])CC2)cc1.[Gd+3] (centres unmarked) [Example 32]" unit_tag=L/mmol/s observed_value=4.1
molecule="COCC(C(=O)O)N1CCN(CC(=O)[O-])CCN(C(Cc2ccc(OCC(F)(F)C(F)F)cc2)C(=O)[O-])CCN(CC(=O)[O-])CC1.[Gd+3] (centres unmarked) [Example 45]" unit_tag=L/mmol/s observed_value=4.5
molecule="O=C([O-])CN1CCN(C(Cc2ccc(OCC(F)(F)C(F)F)cc2)C(=O)O)CCN(CC(=O)[O-])CCN([C@@H](CO)C(=O)[O-])CC1.[Gd+3] (mixture of isomers) [Example 33]" unit_tag=L/mmol/s observed_value=4.2
molecule="CCOc1ccc(CCCC(C(=O)O)N2CCN(CC(=O)[O-])CCN(CC(=O)[O-])CCN(CC(=O)[O-])CC2)cc1.[Gd+3] (centres unmarked) [Example 28]" unit_tag=L/mmol/s observed_value=4.4

----------
Target: OATP1B3 (Homo sapiens, UniProt Q9NPD5)
Sequence (Q9NPD5 whole entry): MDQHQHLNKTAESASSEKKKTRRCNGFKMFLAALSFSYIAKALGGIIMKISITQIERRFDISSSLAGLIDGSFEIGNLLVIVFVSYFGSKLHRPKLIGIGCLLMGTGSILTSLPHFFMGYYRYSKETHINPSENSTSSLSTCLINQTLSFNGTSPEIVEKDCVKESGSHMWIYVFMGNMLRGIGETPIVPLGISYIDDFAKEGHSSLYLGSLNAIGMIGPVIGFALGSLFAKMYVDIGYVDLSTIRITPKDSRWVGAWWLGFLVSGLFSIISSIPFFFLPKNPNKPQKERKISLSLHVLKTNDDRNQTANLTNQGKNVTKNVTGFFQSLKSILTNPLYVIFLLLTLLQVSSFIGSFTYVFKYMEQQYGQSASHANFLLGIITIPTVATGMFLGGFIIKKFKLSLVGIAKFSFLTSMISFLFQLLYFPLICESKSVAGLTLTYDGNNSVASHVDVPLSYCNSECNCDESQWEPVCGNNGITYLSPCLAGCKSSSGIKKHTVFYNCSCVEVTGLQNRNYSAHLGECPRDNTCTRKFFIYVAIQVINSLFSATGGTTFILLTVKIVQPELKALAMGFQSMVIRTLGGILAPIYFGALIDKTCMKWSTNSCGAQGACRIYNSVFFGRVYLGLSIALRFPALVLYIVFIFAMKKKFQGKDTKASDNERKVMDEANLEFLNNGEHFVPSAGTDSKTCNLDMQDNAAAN
Experiment: Uptake into stable transfected OATP1B3 HEK 293 cells
Type: cell-based
Conditions: uptake into OATP1B3-HEK 293 cells
Protocol: Cryopreserved cells were shortly thawed in water bath and diluted in 10 mL warm culture medium (37° C.). After medium change the cells were grown for 3d in a 25 cm^2 cell culture flask. After 3 to 5d the cells were transferred into 75 cm^2 flasks. […] All test items were prepared in transport buffer at a final concentration of 100 µM from stock solutions (180 to 500 mM concentration). […]
MEASURED_METRIC: Inhibition Rifampicine (% inhibition)

molecule="CCOc1ccc(CC(CN(CCN(CC(=O)[O-])CC(=O)[O-])CC(=O)[O-])N(CC(=O)[O-])CC(=O)[O-])cc1.[Gd+3].[Na+].[Na+] (centres unmarked) [RC1, gadoxetate disodium, reference compound]" study_target="OATP1B3 (Homo sapiens, UniProt Q9NPD5)" measured_metric="Inhibition Rifampicine" observed_value=99
molecule="CCCOc1ccc(CC(C(=O)O)N2CCN(CC(=O)[O-])CCN(CC(=O)[O-])CCN(CC(=O)[O-])CC2)cc1.[Gd+3] (centres unmarked)" study_target="OATP1B3 (Homo sapiens, UniProt Q9NPD5)" measured_metric="Inhibition Rifampicine" observed_value=81
molecule=CCCCOc1ccc(CCCC[C@@H](C(=O)O)N2CCN([C@@H](CO)C(=O)[O-])CCN([C@@H](CO)C(=O)[O-])CCN([C@@H](CO)C(=O)[O-])CC2)cc1.[Gd+3] study_target="OATP1B3 (Homo sapiens, UniProt Q9NPD5)" measured_metric="Inhibition Rifampicine" observed_value=95
molecule=CCOCCOCCOc1ccc(CCC[C@H](C(=O)O)N2CCN([C@@H](CO)C(=O)[O-])CCN([C@@H](CO)C(=O)[O-])CCN([C@@H](CO)C(=O)[O-])CC2)cc1.[Gd+3] study_target="OATP1B3 (Homo sapiens, UniProt Q9NPD5)" measured_metric="Inhibition Rifampicine" observed_value=96
molecule=O=C([O-])CN1CCN(CC(=O)[O-])CCN([C@H](Cc2ccc(OCC(F)(F)F)cc2)C(=O)O)CCN(CC(=O)[O-])CC1.[Gd+3] study_target="OATP1B3 (Homo sapiens, UniProt Q9NPD5)" measured_metric="Inhibition Rifampicine" observed_value=90

----------
System: freshly isolated rat hepatocytes
Assay: Uptake into freshly isolated rat hepatocytes
Details: rat hepatocyte uptake; test item and Rifampicine 1:1, each 100 μM
MEASURED_METRIC: Inhibition Rifampicine

compound="CCOCCOCCOCCOc1ccc(CC(C(=O)O)N2CCN(CC(=O)[O-])CCN(CC(=O)[O-])CCN(CC(=O)[O-])CC2)cc1.[Gd+3] (stereo not drawn)" measured_metric="Inhibition Rifampicine" observed_value="90 % inhibition"
compound="CCOCCOCCOc1ccc(CCCC(C(=O)O)N2CCN(C(CO)C(=O)[O-])CCN(C(CO)C(=O)[O-])CCN(C(CO)C(=O)[O-])CC2)cc1.[Gd+3] (stereo not drawn)" measured_metric="Inhibition Rifampicine" observed_value="91 % inhibition"
compound=CCCCOc1cccc(CCC[C@@H](C(=O)O)N2CCN([C@@H](CO)C(=O)[O-])CCN([C@@H](CO)C(=O)[O-])CCN([C@@H](CO)C(=O)[O-])CC2)c1.[Gd+3] measured_metric="Inhibition Rifampicine" observed_value="90 % inhibition"

----------
Molecular target: OATP1B1 (Homo sapiens)
Sequence (Q9Y6L6 whole entry): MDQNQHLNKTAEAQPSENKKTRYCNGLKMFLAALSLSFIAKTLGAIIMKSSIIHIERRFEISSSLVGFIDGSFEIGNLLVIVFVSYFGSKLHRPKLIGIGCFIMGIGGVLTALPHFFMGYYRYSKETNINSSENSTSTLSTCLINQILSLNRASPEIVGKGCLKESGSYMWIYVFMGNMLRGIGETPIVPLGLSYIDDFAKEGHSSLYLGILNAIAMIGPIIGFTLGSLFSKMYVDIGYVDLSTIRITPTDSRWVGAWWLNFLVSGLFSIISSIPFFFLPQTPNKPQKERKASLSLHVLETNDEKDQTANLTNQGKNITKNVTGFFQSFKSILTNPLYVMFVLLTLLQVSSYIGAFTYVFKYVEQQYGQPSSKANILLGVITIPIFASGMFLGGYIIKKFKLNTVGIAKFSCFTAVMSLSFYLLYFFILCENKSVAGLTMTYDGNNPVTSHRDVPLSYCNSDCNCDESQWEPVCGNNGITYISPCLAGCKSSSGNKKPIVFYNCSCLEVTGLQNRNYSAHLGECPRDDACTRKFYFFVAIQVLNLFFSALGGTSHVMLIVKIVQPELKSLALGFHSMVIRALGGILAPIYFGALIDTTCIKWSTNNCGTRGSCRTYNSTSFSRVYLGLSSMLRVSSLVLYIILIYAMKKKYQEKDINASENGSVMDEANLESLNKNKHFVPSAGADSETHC
Assay: Uptake into stable transfected OATP1B1 HEK 293 cells
Format: cell-based
Conditions: 40 min incubation, relative to RC1 (Gd-EOB-DTPA)
MEASURED_METRIC: Uptake into OATP1B1-HEK 293 cells

compound="CCCOc1ccc(CC(C(=O)O)N2CCN(CC(=O)[O-])CCN(CC(=O)[O-])CCN(CC(=O)[O-])CC2)cc1.[Gd+3] (centres unmarked) [Example 48]" measured_metric="Uptake into OATP1B1-HEK 293 cells" observed_value="240 % of RC1"
compound="CCOCCOCCOc1ccc(C[C@H](C(=O)O)N2CCN(CC(=O)[O-])CCN(CC(=O)[O-])CCN(CC(=O)[O-])CC2)cc1.[Gd+3] [Example 4]" measured_metric="Uptake into OATP1B1-HEK 293 cells" observed_value="126 % of RC1"
compound="CCOCCOCCOCCOc1ccc(CC(C(=O)O)N2CCN(CC(=O)[O-])CCN(CC(=O)[O-])CCN(CC(=O)[O-])CC2)cc1.[Gd+3] (centres unmarked) [Example 10]" measured_metric="Uptake into OATP1B1-HEK 293 cells" observed_value="87 % of RC1"
compound="CCCCOc1ccc(CCCC[C@@H](C(=O)O)N2CCN([C@@H](CO)C(=O)[O-])CCN([C@@H](CO)C(=O)[O-])CCN([C@@H](CO)C(=O)[O-])CC2)cc1.[Gd+3] [Example 9]" measured_metric="Uptake into OATP1B1-HEK 293 cells" observed_value="498 % of RC1"
compound="CCOCCOCCOc1ccc(CCC[C@@H](C(=O)O)N2CCN(CC(=O)[O-])CCN(CC(=O)[O-])CCN(CC(=O)[O-])CC2)cc1.[Gd+3] [Example 26]" measured_metric="Uptake into OATP1B1-HEK 293 cells" observed_value="386 % of RC1"

----------
Test: Relaxivity measurements at 1.41 T in water
Format: physicochemical
Conditions: 37° C., normalized to Gd
r1 water strictly under 4 L/mmol/s means rule met; at 4 L/mmol/s or over means rule not met.

compound="O=C([O-])CN1CCN(CC(=O)[O-])CCN(C(Cc2ccc(OCC(F)(F)C(F)F)cc2)C(=O)O)CCN(CC(=O)[O-])CC1.[Gd+3] (centres unmarked)" qualitative_label="rule met"
compound=CCOCCOCCOCCOc1ccc(C[C@@H](C(=O)O)N2CCN(CC(=O)[O-])CCN(CC(=O)[O-])CCN(CC(=O)[O-])CC2)cc1.[Gd+3] qualitative_label="rule not met"
compound=CCCCOc1ccc(CCC[C@@H](C(=O)O)N2CCN(CC(=O)[O-])CCN(CC(=O)[O-])CCN(CC(=O)[O-])CC2)cc1.[Gd+3] qualitative_label="rule not met"
compound=CCOCCOCCOc1ccc(CCC[C@@H](C(=O)O)N2CCN(CC(=O)[O-])CCN(CC(=O)[O-])CCN(CC(=O)[O-])CC2)cc1.[Gd+3] qualitative_label="rule not met"

Reference for the values: patent US20260083864A1
